Data provenance is PubChem BioAssay.

- test_system: Torsin-1A (Homo sapiens)
- test_description: small-molecule binders of mutant TOR1A in lysate, primary screen, cell lysate, small-molecule microarray, COS7 lysate, 635/667 nm fluorescence (AID 1150);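 further: score pools 667 nm emission and signal to noise measuring lysate protein binding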
- experimental_context: COS7 hTOR1A mutant lysate, 635 nm fluorescence, higher = more signal
quantity_name: composite z-score
Simply state the number, no unit and no words.

[
  {
    "compound": "COC(=O)[C@H](Cc1ccccc1)N1CC(C)(OC)O[C@@H](Cc2ccccc2)[C@H]1/C=C/C1CC1 (stereo partly drawn)",
    "reported_value": 0.269
  },
  {
    "compound": "COc1cc2c(cc1OC)CN(C(=O)[C@@H]1[C@H]3C(=O)O[C@H](c4ccccc4)[C@H](c4ccccc4)N3[C@H](c3ccc(O)cc3)[C@@]13C(=O)Nc1ccc(C#CC4=CCCCC4)cc13)CC2",
    "reported_value": 0.794
  }
]

# next compound below
Quick one: composite z-score of `COC(=O)[C@@]1(Cc2ccccc2)[C@H]2c3cc(C(=O)N(C)C)n(Cc4nc5ccccc5[nH]4)c3C[C@H]2CN1C(=O)c1ccccc1` ?
0.853
